Source listed as patent US4232121A.

ASSAY_SETUP: not told
READOUT_NAME: ER
Just the number.

query: So what does the record say about ER for `CCN1C(=Cc2ccc3ccccc3[n+]2CC)C=Cc2ccccc21` ?
result: -1.03

query: Quick one: ER of CCN1C(=CC=Cc2oc3ccc(OC(C)=O)cc3[n+]2CC)Oc2ccc(OC(C)=O)cc21 [7,5,5'-diacetoxy] ?
result: -1.18

query: Consider the molecule shown here: `CCN1C(=CC=Cc2oc3ccc(C)cc3[n+]2CC)Oc2ccc(C)cc21` What is its recorded ER?
result: -1.28

###

Please provide measured Sea Urchin Eggs Activity for the entries that follow.
System: Sea Urchin Eggs
TEST_NAME: Inhibition of cell division in fertilized sea urchin eggs
Format: cell-based
ASSAY_SETUP: arbitrary scale 0 to 5, 5 most active; dye 10^-5 to 10^-6 molar, 60 minutes after fertilization

query: Give its Sea Urchin Eggs Activity value. Item: `CCN1C(=CC=Cc2oc3ccccc3[n+]2CC)Oc2ccccc21`
result: +4

query: Report Sea Urchin Eggs Activity for `CCN1C(=CC=Cc2sc3ccc4ccccc4c3[n+]2CC)Sc2ccc3ccccc3c21` please.
result: 0

query: I would be grateful if you could share the reported Sea Urchin Eggs Activity for `CCN1C(=CC=Cc2oc3ccc(C)cc3[n+]2CC)Oc2ccc(C)cc21` .
result: +4
